# target: T1, human PD-L1-his (human, UniProt Q9NZQ7 19-238)
# T1 construct: also called hPD-L1-his; human His-PD-L1
# T1 sequence (Q9NZQ7 19-238 limits assumed): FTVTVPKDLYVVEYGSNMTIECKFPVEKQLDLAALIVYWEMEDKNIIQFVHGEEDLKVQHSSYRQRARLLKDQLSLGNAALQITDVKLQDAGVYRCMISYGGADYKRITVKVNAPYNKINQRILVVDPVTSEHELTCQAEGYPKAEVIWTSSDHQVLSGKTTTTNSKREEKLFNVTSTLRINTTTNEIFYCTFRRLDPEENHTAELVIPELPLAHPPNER
# protocol-notes: SPR, Biacore, full kinetics, antigen 100-1.5625 nM
measured-property: kon (M⁻¹ s⁻¹)
Please give a number only; it is taken to be in M⁻¹ s⁻¹.

// known answers, use as guide
[[record]]
binder = "112-VHH7-PTM (VHH, Humanized) VHH: EVQLVESGGGLVQPGGSLRLSCAASGSIFSSGTQFSDSKIDWYRQAPGKQREWIAGIFSTGSTIYEDSVKGRFAISRDNAKNMLYLQMNSLRAEDTAVYYCRVIGRGILAWGQGTLVTVSS"
test_value = "1.69e+06"

[[record]]
binder = "ALP-Tan-3p-93 (chimeric) (antibody, V domains shown, not shown: a dimerising Fc or GST; small tags and cut ends, Called chimeric; also called ALP-Tan-3p-93 chimeric antibody) VH: QVQLVESVGGLVQPGDSLRLSCLASGRTFTFRHYVMGWFRQAPGKEREFVAAISWSGSGSYYADSVKGRFTISRDNSKNMVFLQMNGLKPEDTAVYYCAADMTTRMSQASREYDYWGQGTQVTVSS"
test_value = 192000

[[record]]
binder = "93-VH-7 (VHH, Humanized) VHH: EVQLVESGGGLVQPGGSLRLSCAASGFTFTFRHYVMGWFRQAPGKGLEFVAAISWSGSGSYYADSVKGRFTISRDNSKNTLYLQMNSLRAEDTAVYYCAADMTTRMSQASREYDYWGQGTLVTVSS"
test_value = 87600


Let us examine a further case.
Request: Sample 93-VH-4 (VHH, Humanized) VHH: EVQLVESGGGLVQPGGSLRLSCAASGFTFTFRHYVMGWFRQAPGKGLEFVAAISWSGSGSYYADSVKGRFTISRDNSKNTVYLQMNSLRAEDTAVYYCAADMTTRMSQASREYDYWGQGTLVTVSS — what was its kon?
Response: 80500
